# credit: PubChem BioAssay AID1963848

Listing: viability, T/C of selected molecules
- Tested on: 379773-124-R-J2-PDC spheroid viability
- assay-protocol: Anticancer human tumor 379773-124-R-J2-PDC patient-derived endometrial carcinoma cell line growth inhibition [POLQ]
- recorded-conditions: second compound 0.0316 µM; first compound 1 µM; active compounds read low; spheroids with HUVEC and MSC
test-readout: viability, T/C (%)

1. COc1ccc([C@@H](O)c2cc(-c3ncnc4cc(N5CCOCC5)ccc34)c(F)cc2Cl)nn1 + Cc1cccc(N(C)C(=O)C2C(O)CCN2c2nc(C)cc(C(F)(F)F)c2C#N)c1; 96.3
2. C#Cc1c(F)ccc2cc(O)cc(-c3ncc4c(N5CC6CCC(C5)N6)nc(OCC56CCCN5CC(F)C6)nc4c3F)c12 (centres undefined) + COC1C(OC(N)=O)C(O)C(Oc2ccc3c(O)c(NC(=O)c4ccc(O)c(CC=C(C)C)c4)c(=O)oc3c2C)OC1(C)C; 81
3. C=CC(=O)N1CCN(c2nc(=O)n(-c3c(C)ccnc3C(C)C)c3nc(-c4c(O)cccc4F)c(F)cc23)C(C)C1 (centres undefined) + Nc1ccc(C#CCN(C(=O)Cc2ncc(C(F)(F)F)cc2C(F)(F)F)c2ccc(F)cc2)nn1; 94.7
4. CNCc1ccc(-c2[nH]c3cc(F)cc4c3c2CCNC4=O)cc1 + Nc1ccc(C#CCN(C(=O)Cc2ncc(C(F)(F)F)cc2C(F)(F)F)c2ccc(F)cc2)nn1; 101

====

- Test system: 379773-124-R-J2-PDC spheroid viability
- assay-protocol: Anticancer human tumor 379773-124-R-J2-PDC cell line growth inhibition [POLQ];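 further: spheroids exposed to drugs for seven days before readout; percent viability relative to DMSO vehicle control taken as 100%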
- recorded-conditions: second compound 0.1 µM; first compound 0.1 µM; active compounds read low; spheroids with HUVEC and MSC
Listing: viability, T/C of selected compounds
test-readout: viability, T/C (%)

1. C=CCn1c(=O)c2cnc(Nc3ccc(N4CCN(C)CC4)cc3)nc2n1-c1cccc(C(C)(C)O)n1 + COC1C(OC(N)=O)C(O)C(Oc2ccc3c(O)c(NC(=O)c4ccc(O)c(CC=C(C)C)c4)c(=O)oc3c2C)OC1(C)C; 81.7
2. COc1ccc([C@@H](O)c2cc(-c3ncnc4cc(N5CCOCC5)ccc34)c(F)cc2Cl)nn1 + COC1C(OC(N)=O)C(O)C(Oc2ccc3c(O)c(NC(=O)c4ccc(O)c(CC=C(C)C)c4)c(=O)oc3c2C)OC1(C)C; 81.4
3. C=CC(=O)N1CCN(c2nc(=O)n(-c3c(C)ccnc3C(C)C)c3nc(-c4c(O)cccc4F)c(F)cc23)C(C)C1 (stereo not drawn) + Cc1cccc(N(C)C(=O)C2C(O)CCN2c2nc(C)cc(C(F)(F)F)c2C#N)c1; 77.8

====

- Test system: 379773-124-R-J2-PDC spheroid viability
- assay-protocol: Anticancer human tumor 379773-124-R-J2-PDC cell line growth inhibition [POLQ]; active = viability on the fitted dose curve at most 10% of control; inactive = the rest;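 further: spheroids exposed to drugs for seven days before readout; percent viability relative to DMSO vehicle control taken as 100%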
- recorded-conditions: second compound 10 µM; first compound 1 µM; spheroids with HUVEC and MSC
Labels: yes (1) = active, no (0) = inactive

1. CNCc1ccc(-c2[nH]c3cc(F)cc4c3c2CCNC4=O)cc1 + Cc1cccc(N(C)C(=O)C2C(O)CCN2c2nc(C)cc(C(F)(F)F)c2C#N)c1; no (0)
2. C=CCn1c(=O)c2cnc(Nc3ccc(N4CCN(C)CC4)cc3)nc2n1-c1cccc(C(C)(C)O)n1 + COC1C(OC(N)=O)C(O)C(Oc2ccc3c(O)c(NC(=O)c4ccc(O)c(CC=C(C)C)c4)c(=O)oc3c2C)OC1(C)C; yes (1)
3. C#Cc1c(F)ccc2cc(O)cc(-c3ncc4c(N5CC6CCC(C5)N6)nc(OCC56CCCN5CC(F)C6)nc4c3F)c12 (centres undefined) + Cc1cccc(N(C)C(=O)C2C(O)CCN2c2nc(C)cc(C(F)(F)F)c2C#N)c1; no (0)
4. COc1cccc(OCCCN)c1-c1cc(Nc2cnc(C#N)cn2)n[nH]1 + Nc1ccc(C#CCN(C(=O)Cc2ncc(C(F)(F)F)cc2C(F)(F)F)c2ccc(F)cc2)nn1; yes (1)

====

- System: 379773-124-R-J2-PDC spheroid viability
- assay-protocol: Anticancer human tumor 379773-124-R-J2-PDC cell line growth inhibition [POLQ]; active = viability on the fitted dose curve at most 10% of control; inactive = the rest;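 further: spheroids exposed to drugs for seven days before readout; percent viability relative to DMSO vehicle control taken as 100%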
- recorded-conditions: second compound 10 µM; first compound 0.1 µM; spheroids with HUVEC and MSC
Labels: Y = active, N = inactive

1) C#Cc1c(F)ccc2cc(O)cc(-c3ncc4c(N5CC6CCC(C5)N6)nc(OCC56CCCN5CC(F)C6)nc4c3F)c12 (configuration not stated) + Cc1cccc(N(C)C(=O)C2C(O)CCN2c2nc(C)cc(C(F)(F)F)c2C#N)c1; N
2) C=CCn1c(=O)c2cnc(Nc3ccc(N4CCN(C)CC4)cc3)nc2n1-c1cccc(C(C)(C)O)n1 + Nc1ccc(C#CCN(C(=O)Cc2ncc(C(F)(F)F)cc2C(F)(F)F)c2ccc(F)cc2)nn1; N
3) COc1cc(C2c3cc4c(cc3C(OC3OC5COC(C)OC5C(O)C3O)C3COC(=O)C23)OCO4)cc(OC)c1O (configuration not stated) + Nc1ccc(C#CCN(C(=O)Cc2ncc(C(F)(F)F)cc2C(F)(F)F)c2ccc(F)cc2)nn1; N
4) COc1ccc([C@@H](O)c2cc(-c3ncnc4cc(N5CCOCC5)ccc34)c(F)cc2Cl)nn1 + Nc1ccc(C#CCN(C(=O)Cc2ncc(C(F)(F)F)cc2C(F)(F)F)c2ccc(F)cc2)nn1; N
5) COc1cccc(OCCCN)c1-c1cc(Nc2cnc(C#N)cn2)n[nH]1 + Nc1ccc(C#CCN(C(=O)Cc2ncc(C(F)(F)F)cc2C(F)(F)F)c2ccc(F)cc2)nn1; Y
6) O=C(c1cc(Cc2n[nH]c(=O)c3ccccc23)ccc1F)N1CCN(C(=O)C2CC2)CC1 + Cc1cccc(N(C)C(=O)C2C(O)CCN2c2nc(C)cc(C(F)(F)F)c2C#N)c1; N
7) COc1cccc(OCCCN)c1-c1cc(Nc2cnc(C#N)cn2)n[nH]1 + Cc1cccc(N(C)C(=O)C2C(O)CCN2c2nc(C)cc(C(F)(F)F)c2C#N)c1; Y

====

- Tested on: 379773-124-R-J2-PDC spheroid viability
- assay-protocol: Anticancer human tumor 379773-124-R-J2-PDC cell line growth inhibition [POLQ]; active means viability on the fitted dose curve at most 10% of control; inactive means the rest;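 further: spheroids exposed to drugs for seven days before readout; percent viability relative to DMSO vehicle control taken as 100%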
- recorded-conditions: second compound 0.1 µM; first compound 0.316 µM; spheroids with HUVEC and MSC
Labels: active, inactive

1) COc1cc2cc(C(=O)CCC(=O)O)sc2cc1OC + Cc1cccc(N(C)C(=O)C2C(O)CCN2c2nc(C)cc(C(F)(F)F)c2C#N)c1; inactive
2) CC1COCCN1c1cc(C2(S(C)(=N)=O)CC2)nc(-c2ccnc3[nH]ccc23)n1 (configuration not stated) + Nc1ccc(C#CCN(C(=O)Cc2ncc(C(F)(F)F)cc2C(F)(F)F)c2ccc(F)cc2)nn1; inactive
3) C=CC(=O)N1CCN(c2nc(=O)n(-c3c(C)ccnc3C(C)C)c3nc(-c4c(O)cccc4F)c(F)cc23)C(C)C1 (configuration not stated) + COC1C(OC(N)=O)C(O)C(Oc2ccc3c(O)c(NC(=O)c4ccc(O)c(CC=C(C)C)c4)c(=O)oc3c2C)OC1(C)C; inactive
4) C=CCn1c(=O)c2cnc(Nc3ccc(N4CCN(C)CC4)cc3)nc2n1-c1cccc(C(C)(C)O)n1 + COC1C(OC(N)=O)C(O)C(Oc2ccc3c(O)c(NC(=O)c4ccc(O)c(CC=C(C)C)c4)c(=O)oc3c2C)OC1(C)C; inactive
5) CCc1cc2c(N3CCc4c(cc(Cn5ccnc5)cc4-c4cn(C)nc4C(F)(F)F)C3=O)cc(C)nc2c(OC)n1 + Nc1ccc(C#CCN(C(=O)Cc2ncc(C(F)(F)F)cc2C(F)(F)F)c2ccc(F)cc2)nn1; inactive
6) O=C(Nc1ccc(O)c(NS(=O)(=O)c2ccc(F)cc2)c1)c1ccc(-c2ccccc2)cc1 + Nc1ccc(C#CCN(C(=O)Cc2ncc(C(F)(F)F)cc2C(F)(F)F)c2ccc(F)cc2)nn1; inactive
7) CC(C)n1c(=O)n(C)c2cnc3cc(F)c(-c4ccc(OCCCN5CCCCC5)nc4)cc3c21 + Nc1ccc(C#CCN(C(=O)Cc2ncc(C(F)(F)F)cc2C(F)(F)F)c2ccc(F)cc2)nn1; inactive
8) Nc1ccn(C2OC(CO)C(O)C2(F)F)c(=O)n1 (configuration not stated) + COC1C(OC(N)=O)C(O)C(Oc2ccc3c(O)c(NC(=O)c4ccc(O)c(CC=C(C)C)c4)c(=O)oc3c2C)OC1(C)C; active
9) COc1cccc2c1C(=O)c1c(O)c3c(c(O)c1C2=O)CC(O)(C(=O)CO)CC3OC1CC(N)C(O)C(C)O1 (configuration not stated) + Cc1cccc(N(C)C(=O)C2C(O)CCN2c2nc(C)cc(C(F)(F)F)c2C#N)c1; active
10) CC1COCCN1c1cc(C2(O)CC3CCC(C2)O3)c2cnn(-c3ccn[nH]3)c2n1 (configuration not stated) + COC1C(OC(N)=O)C(O)C(Oc2ccc3c(O)c(NC(=O)c4ccc(O)c(CC=C(C)C)c4)c(=O)oc3c2C)OC1(C)C; inactive
11) C=CCn1c(=O)c2cnc(Nc3ccc(N4CCN(C)CC4)cc3)nc2n1-c1cccc(C(C)(C)O)n1 + Cc1cccc(N(C)C(=O)C2C(O)CCN2c2nc(C)cc(C(F)(F)F)c2C#N)c1; inactive
12) CNCc1ccc(-c2[nH]c3cc(F)cc4c3c2CCNC4=O)cc1 + Cc1cccc(N(C)C(=O)C2C(O)CCN2c2nc(C)cc(C(F)(F)F)c2C#N)c1; inactive
